Recorded values, source ChEMBL document CHEMBL5543068.

# System: A549
# assay.remarks: Antiproliferative activity against human A549 cells assessed as reduction in cell viability incubated for 48 hrs by MTT assay
# Format: functional, cell-based
# test.settings: A549, 48 h
quantity: IC50 (µM)

I. C=CCc1ccc(OC)c(-c2ccc(OCCCCCCOC(=O)Cc3c4[n+](cc5c(OC)c(OC)ccc35)CCc3cc5c(cc3-4)OCO5)c(CC=C)c2)c1
II. CCCCCCCCCCCCc1c2[n+](cc3c(OC)c(OC)ccc13)CCc1cc3c(cc1-2)OCO3
III. C=CCc1ccc(OCCC)c(-c2ccc(OCCC[n+]3ccc(/C=C/c4c[nH]c5ccccc45)cc3)c(CC=C)c2)c1.[Br-]
q: Quick one: which order do the items above go in by IC50, smallest to largest? // respond by listing labels in the order requested
a: II, I, III

---

# assay.remarks: Cytotoxicity against human HL7702 cells assessed as reduction in cell viability incubated for 48 hrs by MTT assay
# Format: toxicity, cell-based
# test.settings: HL7702 (L02) cells
Overview of recorded IC50 at 48 h for various compounds
The figure you give is taken to be in µM; do not add the unit.

Solved cases (4 shown):
sample.smiles	result.unit	IC50 at 48 h
C=CCc1ccc(OCCCCCC[n+]2ccc(/C=C/c3c[nH]c4ccccc34)cc2)c(-c2ccc(OC)c(CC=C)c2)c1	µM	3.88
C=CCc1ccc(OCCC)c(-c2ccc(OCCCCCCCCCCOC(=O)Cc3c4[n+](cc5c(OC)c(OC)ccc35)CCc3cc5c(cc3-4)OCO5)c(CC=C)c2)c1	µM	4.39
C=CCc1ccc(OC)c(-c2ccc(OC(=O)Cc3c4[n+](cc5c(OC)c(OC)ccc35)CCc3cc5c(cc3-4)OCO5)c(CC=C)c2)c1	µM	4.21
CCCCCCOC(=O)Cc1c2[n+](cc3c(OC)c(OC)ccc13)CCc1cc3c(cc1-2)OCO3	µM	19

q: Please give the measured IC50 at 48 h for this compound: C=CCc1ccc(OCCC)c(-c2ccc(OCCCOC(=O)Cc3c4[n+](cc5c(OC)c(OC)ccc35)CCc3cc5c(cc3-4)OCO5)c(CC=C)c2)c1
a: 3.39

q: Repeat with C=CCc1ccc(OCCCCCCCCCC[n+]2ccc(/C=C/c3c[nH]c4ccccc34)cc2)c(-c2ccc(OC)c(CC=C)c2)c1
a: 4.03

---

# System: A549
# assay.remarks: Antiproliferative activity against human A549 cells assessed as reduction in cell viability incubated for 48 hrs by MTT assay
# Type: functional, cell-based
# test.settings: A549, 48 h
quantity: IC50 (µM)

sample.smiles	test.result
C=CCc1ccc(OC)c(-c2ccc(OCCC[n+]3ccc(/C=C/c4c[nH]c5ccccc45)cc3)c(CC=C)c2)c1	5.32
C=CCc1ccc(OCCCCCCOC(=O)Cc2c3[n+](cc4c(OC)c(OC)ccc24)CCc2cc4c(cc2-3)OCO4)c(-c2ccc(OC)c(CC=C)c2)c1	3.44

a. C=CCc1ccc(OCCCCCCCCCCOC(=O)Cc2c3[n+](cc4c(OC)c(OC)ccc24)CCc2cc4c(cc2-3)OCO4)c(-c2ccc(OCCC)c(CC=C)c2)c1
b. C=CCc1ccc(OCCC[n+]2ccc(/C=C/c3c[nH]c4ccccc34)cc2)c(-c2ccc(OCCC)c(CC=C)c2)c1
q: Lower value of IC50 belongs to which: a or b ? Please identify the chosen entry by its label.
a: b
(b: 1.69 µM, a: 4.32 µM)

---

Let's look at some molecules and their measured IC50 at 48 h.
# assay.remarks: Cytotoxicity against HBE (human bronchial epithelial) cells assessed as reduction in cell viability incubated for 48 hrs by MTT assay
# Type: toxicity, cell-based
The reply should contain only the number, in µM.

Please review the entries below; each comes with its answer.
sample.smiles	IC50 at 48 h (µM)
CCCCCCCCCCCCc1c2[n+](cc3c(OC)c(OC)ccc13)CCc1cc3c(cc1-2)OCO3	1.23
C=CCc1ccc(OCCCCCCCCCC[n+]2ccc(/C=C/c3c[nH]c4ccccc34)cc2)c(-c2ccc(OC)c(CC=C)c2)c1	7.47
C=CCc1ccc(OC)c(-c2ccc(OCCCOC(=O)Cc3c4[n+](cc5c(OC)c(OC)ccc35)CCc3cc5c(cc3-4)OCO5)c(CC=C)c2)c1	21.6
C=CCc1ccc(OCCC)c(-c2ccc(OCCCCCCOC(=O)Cc3c4[n+](cc5c(OC)c(OC)ccc35)CCc3cc5c(cc3-4)OCO5)c(CC=C)c2)c1	3.59
C=CCc1ccc(OCCC)c(-c2ccc(OCCC[n+]3ccc(/C=C/c4c[nH]c5ccccc45)cc3)c(CC=C)c2)c1.[Br-]	23.1

q: Which IC50 at 48 h value is on record for C=CCc1ccc(OCCCOC(=O)Cc2c3[n+](cc4c(OC)c(OC)ccc24)CCc2cc4c(cc2-3)OCO4)c(-c2ccc(OCCC)c(CC=C)c2)c1 ?
a: 9.5

q: Can you handle C=CCc1ccc(OCCC[n+]2ccc(/C=C/c3c[nH]c4ccccc34)cc2)c(-c2ccc(OC)c(CC=C)c2)c1 next?
a: 9.84

---

Entries and their IC50 at 48 h
# assay.remarks: Cytotoxicity against HBE (human bronchial epithelial) cells assessed as reduction in cell viability incubated for 48 hrs by MTT assay
# Type: toxicity, cell-based
# output: bare number, implied unit µM

Answered examples (4):
sample.smiles	quantity	result.unit	test.result
C=CCc1ccc(OCCCCCCCCCCOC(=O)Cc2c3[n+](cc4c(OC)c(OC)ccc24)CCc2cc4c(cc2-3)OCO4)c(-c2ccc(OCCC)c(CC=C)c2)c1	IC50 at 48 h	µM	17.5
CCCCCCCCCCOC(=O)Cc1c2[n+](cc3c(OC)c(OC)ccc13)CCc1cc3c(cc1-2)OCO3	IC50 at 48 h	µM	4.35
C=CCc1ccc(OC)c(-c2ccc(OCCCCCCCCCC[n+]3ccc(/C=C/c4c[nH]c5ccccc45)cc3)c(CC=C)c2)c1	IC50 at 48 h	µM	13.5
C=CCc1ccc(OCCC[n+]2ccc(/C=C/c3c[nH]c4ccccc34)cc2)c(-c2ccc(OCCC)c(CC=C)c2)c1	IC50 at 48 h	µM	9.47

Lab note: next compound to report on.
q: Fill in: IC50 at 48 h of C=CCc1ccc(OC)c(-c2ccc(OC(=O)Cc3c4[n+](cc5c(OC)c(OC)ccc35)CCc3cc5c(cc3-4)OCO5)c(CC=C)c2)c1 is ___
a: 16.1

---

Reported IC50 at 48 h by item:
# assay.remarks: Cytotoxicity against HBE (human bronchial epithelial) cells assessed as reduction in cell viability incubated for 48 hrs by MTT assay
# Type: toxicity, cell-based
Numbers only; they are read as µM.

// solved cases for IC50 at 48 h follow
sample.smiles	result.unit	IC50 at 48 h
CCCCCCCCCCc1c2[n+](cc3c(OC)c(OC)ccc13)CCc1cc3c(cc1-2)OCO3	µM	1.52
CCCCCCCCc1c2[n+](cc3c(OC)c(OC)ccc13)CCc1cc3c(cc1-2)OCO3	µM	0.79
C=CCc1ccc(OCCCCCC[n+]2ccc(/C=C/c3c[nH]c4ccccc34)cc2)c(-c2ccc(OC)c(CC=C)c2)c1	µM	6.17
C=CCc1ccc(OCCC)c(-c2ccc(OCCCCCCCCCCOC(=O)Cc3c4[n+](cc5c(OC)c(OC)ccc35)CCc3cc5c(cc3-4)OCO5)c(CC=C)c2)c1	µM	10.7
C=CCc1ccc(OCCCCCCOC(=O)Cc2c3[n+](cc4c(OC)c(OC)ccc24)CCc2cc4c(cc2-3)OCO4)c(-c2ccc(OCCC)c(CC=C)c2)c1	µM	7.08

q: So what does the record say about IC50 at 48 h for C=CCc1ccc(OCCC)c(-c2ccc(OCCCCCCCCCC[n+]3ccc(/C=C/c4c[nH]c5ccccc45)cc3)c(CC=C)c2)c1 ?
a: 16.5

q: Moving on to the next compound: C=CCc1ccc(O)c(-c2ccc(O)c(CC=C)c2)c1
a: 43.7

q: Another compound to check: C=CCc1ccc(OCCC)c(-c2ccc(OCCCCCC[n+]3ccc(/C=C/c4c[nH]c5ccccc45)cc3)c(CC=C)c2)c1
a: 7.78

---

# assay.remarks: Cytotoxicity against HBE (human bronchial epithelial) cells assessed as reduction in cell viability incubated for 48 hrs by MTT assay
# Assay type: toxicity, cell-based
quantity: IC50 at 48 h (µM)
Give just the numeric value; µM need not be written.

Examples from the recorded data:
sample.smiles	IC50 at 48 h, µM
C=CCc1ccc(OCCCCCCCCCCOC(=O)Cc2c3[n+](cc4c(OC)c(OC)ccc24)CCc2cc4c(cc2-3)OCO4)c(-c2ccc(OC)c(CC=C)c2)c1	5.83
C=CCc1ccc(OC)c(-c2ccc(OCCCCCC[n+]3ccc(/C=C/c4c[nH]c5ccccc45)cc3)c(CC=C)c2)c1	20.4
C=CCc1ccc(OCCC)c(-c2ccc(OC(=O)Cc3c4[n+](cc5c(OC)c(OC)ccc35)CCc3cc5c(cc3-4)OCO5)c(CC=C)c2)c1	17.9

Attention now shifts to the item below.
q: Entry under review: C=CCc1ccc(OCCCOC(=O)Cc2c3[n+](cc4c(OC)c(OC)ccc24)CCc2cc4c(cc2-3)OCO4)c(-c2ccc(OC)c(CC=C)c2)c1 . Reported IC50 at 48 h?
a: 19.4
